Value source: ChEMBL document CHEMBL1201862

system: SW-620; assay: NCI tumour cell line growth inhibition, 48 h
Activity calls are given as the source filed them. No stated cut-off is given here; in the data, active = GI50 up to about 1.1 µM and inactive = higher.
Catalogue of GI50 values

// below: answered compounds
Request: So what does the record say about GI50 for O=C(Nc1cccc(F)c1)c1cc2ccc(O)cc2o/c1=N\c1cccc(F)c1 ?
Result: 4.27 µM (inactive)

Request: So what does the record say about GI50 for CC(O)CN1c2ccccc2Sc2ccc(Cl)cc21 (configuration not stated) ?
Result: > 10 µM (inactive)

Request: So what does the record say about GI50 for Cn1c(=O)nc2n(-c3cc(Cl)ccc3Cl)c3ccccc3nc-2c1=O ?
Result: 2.18 µM (inactive)

Request: So what does the record say about GI50 for O=c1c2cc([N+](=O)[O-])ccc2nc2n1CCCCC2 ?
Result: > 100 µM (inactive)

Request: So what does the record say about GI50 for COc1ccc2n[se]nc2c1 ?
Result: > 100 µM (inactive)

Further cases:
Request: So what does the record say about GI50 for COc1cccc(/C=C2\CCC(CCN(C)C)(C3=CCCC3)C2=O)c1 (configuration not stated) ?
Result: 13.9 µM (inactive)

Request: So what does the record say about GI50 for O=C(CN1CCOCC1)NC1=Nc2ncccc2C(=O)NN1 ?
Result: > 10 µM (inactive)

Request: So what does the record say about GI50 for Cc1ccc(C)c(NC2=NC(=O)C(CC(=O)Nc3ccc(Cl)cc3Cl)S2)c1 (configuration not stated) ?
Result: > 100 µM (inactive)

Request: So what does the record say about GI50 for C=CCN1CCC(OC(=O)C(O)(C#CC)C2CCCC2)CC1 (configuration not stated) ?
Result: > 100 µM (inactive)

Request: So what does the record say about GI50 for COc1cc(/C=C2\C[C@H]3[C@@H]4CCc5cc(O)ccc5[C@H]4CC[C@]3(C)C2=O)cc(OC)c1OC ?
Result: 16.7 µM (inactive)

====

system: SK-OV-3; assay: NCI tumour cell line growth inhibition, 48 h
The source made the active and inactive calls. Rule as the data show it: active = GI50 up to about 1.1 µM and inactive = higher.
reportedProperty: GI50

Request: So what does the record say about GI50 for Cc1ccc(/C=C/C(=O)C(C)(C)CN2CCCCC2)cc1 ?
Result: 11 µM (inactive)

Request: So what does the record say about GI50 for Cc1ccc(-c2nc(N/N=C/c3ccc(O)cc3)c3ccccc3n2)cc1 ?
Result: 20.3 µM (inactive)

Request: So what does the record say about GI50 for c1ccc(C2N=C(c3ccccn3)C(c3ccccn3)=NC2c2ccccc2)cc1 (stereo unspecified) ?
Result: > 100 µM (inactive)

Request: So what does the record say about GI50 for Cc1c2ccccc2c(C)c2c3c(ccc12)C(=O)C=CC3=O ?
Result: > 60.5 µM (inactive)

Request: So what does the record say about GI50 for O=C1CC2(CCNCC2)C(=O)N1N1CCOCC1 ?
Result: > 100 µM (inactive)

Could you now consider this next compound?
Request: So what does the record say about GI50 for O=c1c(-c2ccc(O)cc2)coc2cc(OC3OC(CO)C(O)C(O)C3O)cc(O)c12 (stereo unspecified) ?
Result: > 10 µM (inactive)

====

tested on: ACHN; assay: NCI tumour cell line growth inhibition, 48 h
Calls of active or inactive are those of the source. Rule as the data show it: active = GI50 up to about 1.1 µM and inactive = higher.
reportedProperty: GI50

Request: So what does the record say about GI50 for N#Cc1c2c(c(Nc3ccc(F)cc3)n3c1nc1ccccc13)CCCC2 ?
Result: 1.8 µM (inactive)

Further cases:
Request: So what does the record say about GI50 for CC(C)(Cl)C(Br)CCC(C)(Br)C(Br)CBr (stereo unspecified) ?
Result: 17.4 µM (inactive)

Request: So what does the record say about GI50 for O=C(CC1(O)C(=O)Nc2c(Cl)cc(Cl)cc21)c1ccc(Br)cc1Br (stereo unspecified) ?
Result: 14.1 µM (inactive)

====

tested on: SNB-19; test: NCI tumour cell line growth inhibition, 48 h
Calls of active or inactive are those of the source. Rule as the data show it: active = GI50 up to about 1.1 µM and inactive = higher.
Outcomes you can answer with include only these: t for active, f for inactive

As a guide, the following entries are already answered.
Request: Given O=C1CC[C@@]2(O)[C@H]3Cc4ccc(-c5cccc(O)c5)c5c4[C@@]2(CCN3CC2CC2)[C@H]1O5 , state the outcome it received in this test.
Result: f

Request: Given C/C(O[Si](C(C)C)(C(C)C)C(C)C)=C(\C)C(=O)N(C)c1ccccc1Cl , state the outcome it received in this test.
Result: f

Request: Given Oc1cc(-c2cccc(F)c2)nc2cc3c(cc12)OCO3 , state the outcome it received in this test.
Result: t

Request: Given CCOC(=O)c1c(N2CCCC2)[nH]c(=O)c(C(c2c(O)c(C(=O)OCC)c(N3CCCC3)[nH]c2=O)C(C)C)c1O , state the outcome it received in this test.
Result: f

Request: Given O=C1CCCC1NC(=O)C(F)(F)F (stereo unspecified) , state the outcome it received in this test.
Result: f

Further cases:
Request: Given c1ccc(-c2csc3c2-n2cccc2C3N2CCCC2)cc1 (stereo unspecified) , state the outcome it received in this test.
Result: f

Request: Given O=S(=O)(O)c1ccc2c(/N=N/c3ccccc3Cl)c(O)ccc2c1 , state the outcome it received in this test.
Result: f

Request: Given C=CCOc1ccc(C2c3c(n[nH]c3O)CC(C)(O)C2C(=O)OC)cc1OC (stereo unspecified) , state the outcome it received in this test.
Result: f

Request: Given C[P+](C)(CC(F)(F)F)c1ccccc1 , state the outcome it received in this test.
Result: f

Request: Given CC(C)/C(Cl)=N\OC(=O)Nc1ccc(C#N)cc1 , state the outcome it received in this test.
Result: f

Request: Given COc1ccc(-c2oc3ccccc3c(=O)c2O)cc1OC [3-HYDROXY-3',4'-DIMETHOXYFLAVONE] , state the outcome it received in this test.
Result: f

Request: Given C/C=C/[C@H]1O[C@@](OC)([C@@H](C)[C@H](O)[C@H](C)[C@H]2OC(=O)/C(OC)=C/C(C)=C/[C@@H](C)[C@@H](O)[C@@H](C)[C@@H](O)[C@H](C)C/C(C)=C/C=C/[C@@H]2OC)CC(OC2CC(O)C(OC(N)=O)C(C)O2)[C@@H]1C (stereo partly specified) , state the outcome it received in this test.
Result: f

====

tested on: U-251; test: NCI tumour cell line growth inhibition, 48 h
Activity calls are given as the source filed them. Rule as the data show it: active = GI50 up to about 1.1 µM and inactive = higher.
reportedProperty: GI50

// below: answered compounds
Request: So what does the record say about GI50 for O=C1NCCCC12CCCNC2=O ?
Result: > 100 µM (inactive)

Request: So what does the record say about GI50 for CNC(=O)CN(CC(=O)O)C(=O)NC ?
Result: > 100 µM (inactive)

Request: So what does the record say about GI50 for CC(=O)Nc1cc2c3c(c1)CCCN3CCC2 ?
Result: > 100 µM (inactive)

Further cases:
Request: So what does the record say about GI50 for CCCN(CCCC(NC(C)=O)C(=O)NCc1ccccc1)C(=O)N(C)N=O (stereo unspecified) ?
Result: > 100 µM (inactive)

Request: So what does the record say about GI50 for O=C1/C(=C/c2ccc(Cl)cc2)Sc2scc(-c3cccc([N+](=O)[O-])c3)[n+]21 ?
Result: 4.55 µM (inactive)

Request: So what does the record say about GI50 for COC(=O)/C(=N\NC(=O)c1ccccc1O)C(C#N)c1ccccc1 (stereo unspecified) ?
Result: 32.1 µM (inactive)

====

test system: NCI-H226; test: NCI tumour cell line growth inhibition, 48 h
The source made the active and inactive calls. Rule as the data show it: active = GI50 up to about 1.1 µM and inactive = higher.
Outcomes you can answer with include only these: 1 for active, -1 for inactive

Request: Given CC(=O)OC1COC(N2C(=O)/C(=N\Nc3ccc([N+](=O)[O-])cc3)c3cc(Br)c([N+](=O)[O-])cc32)C(OC(C)=O)C1OC(C)=O (stereo not drawn) , state the outcome it received in this test.
Result: -1

Request: Given O=C(Nc1ccccc1)c1cc(S(=O)(=O)NC2=Nc3ccc(Cl)cc3C(c3ccccc3)N2)c(SSc2cc(Cl)c(C(=O)Nc3ccccc3)cc2S(=O)(=O)NC2=Nc3ccc(Cl)cc3C(c3ccccc3)N2)cc1Cl (stereo not drawn) , state the outcome it received in this test.
Result: -1

Request: Given Cc1ccc(S(=O)(=O)CC2CCCn3c2c(C#N)c2ccccc23)cc1 (stereo not drawn) , state the outcome it received in this test.
Result: -1

Request: Given O/N=C/c1ncccc1C1OCCO1 , state the outcome it received in this test.
Result: -1

Request: Given COc1ccc(NC(C)=O)cc1N1C(=O)/C(=C\c2cc(OC)c(OC)c(OC)c2)S(=O)(=O)C1c1ccccc1 (stereo not drawn) , state the outcome it received in this test.
Result: -1

Request: Given C#CCOC(=O)C(N)CCCNC(=N)N (stereo not drawn) , state the outcome it received in this test.
Result: -1

Further cases:
Request: Given COc1ccc(/C=C/c2cc(OC)c(OC)c(OC)c2)cc1 , state the outcome it received in this test.
Result: -1

Request: Given Cc1cccc(/C=N/NC(=S)NC2CCCCC2)n1 , state the outcome it received in this test.
Result: -1
